System: 695427-040-R-J1-PDC complex spheroids, viability percent T/C
Assay comment: Anticancer human tumor 695427-040-R-J1-PDC patient-derived colon adenocarcinoma cell line growth inhibition [GQUAD]; active = viability on the fitted dose curve at most 10% of control; inactive = the rest
Protocol conditions: second compound 0.1 µM; first compound 3.16 µM
Excerpt: DNA G-quadruplex Stabilizer Agents in Combinations in Complex Spheroids A high-throughput screen of multi-cell type tumor spheroids was designed to identify active combinations of DNA G-quadruplex stabilizer agents and targeted small molecules. […] Compounds. […] If the clinical Cmax for an agent had not been determined, the highest concentration tested was 10 microM. […]
Hi! Could you answer with just one of these? active, inactive

Would you please look over these solved cases?
[[record]]
molecule = "O=C(c1cc(Cc2n[nH]c(=O)c3ccccc23)ccc1F)N1CCN(C(=O)C2CC2)CC1 + Cc1cnc(CNC(=O)c2c(=O)c3ccc(N4CCCN(C)CC4)nc3n3c2sc2ccccc23)cn1"
test_target = "695427-040-R-J1-PDC complex spheroids, viability percent T/C"
category_label = "inactive"

[[record]]
molecule = "CCCS(=O)(=O)Nc1ccc(F)c(C(=O)c2c[nH]c3ncc(-c4ccc(Cl)cc4)cc23)c1F + Cc1cnc(CNC(=O)c2c(=O)c3ccc(N4CCCN(C)CC4)nc3n3c2sc2ccccc23)cn1"
test_target = "695427-040-R-J1-PDC complex spheroids, viability percent T/C"
category_label = "inactive"

[[record]]
molecule = "Nc1ccn(C2OC(CO)C(O)C2(F)F)c(=O)n1 (stereo not given) + Cc1[nH]c2ccc(F)cc2c1-c1nc2c3cccnc3c3ncccc3c2[nH]1"
test_target = "695427-040-R-J1-PDC complex spheroids, viability percent T/C"
category_label = "inactive"


Record request — test call for O=C(c1cc(Cc2n[nH]c(=O)c3ccccc23)ccc1F)N1CCN(C(=O)C2CC2)CC1 + CN(C)c1ccc(Nc2c3ccc(NC(=O)CCN4CCCC4)cc3nc3cc(NC(=O)CCN4CCCC4)ccc23)cc1
inactive

What call does the record list for CC(C)n1c(=O)n(C)c2cnc3cc(F)c(-c4ccc(OCCCN5CCCCC5)nc4)cc3c21 + CN(C)c1ccc(Nc2c3ccc(NC(=O)CCN4CCCC4)cc3nc3cc(NC(=O)CCN4CCCC4)ccc23)cc1 ?
inactive

Look up the recorded call for CC1COCCN1c1cc(-c2ccnn2C)c2ccnc(-c3ccn[nH]3)c2n1 (stereo not given) + Cc1cnc(CNC(=O)c2c(=O)c3ccc(N4CCCN(C)CC4)nc3n3c2sc2ccccc23)cn1 in this test.
inactive

Lab log entry: O=c1[nH]cc(F)c(=O)[nH]1 + Cc1[nH]c2ccc(F)cc2c1-c1nc2c3cccnc3c3ncccc3c2[nH]1 — outcome as called in the assay?
inactive

I'd appreciate the recorded outcome for C=CC(=O)N1CCN(c2nc(=O)n(-c3c(C)ccnc3C(C)C)c3nc(-c4c(O)cccc4F)c(F)cc23)C(C)C1 (stereo not given) + Cc1cnc(CNC(=O)c2c(=O)c3ccc(N4CCCN(C)CC4)nc3n3c2sc2ccccc23)cn1 from this test.
inactive

State the result this test recorded for C=CC(=O)N1CCN(c2nc(=O)n(-c3c(C)ccnc3C(C)C)c3nc(-c4c(O)cccc4F)c(F)cc23)C(C)C1 (stereo not given) + CN(C)c1ccc(Nc2c3ccc(NC(=O)CCN4CCCC4)cc3nc3cc(NC(=O)CCN4CCCC4)ccc23)cc1 .
inactive

Could you please tell me the result logged for CC(C)(O)C1CCC(Nc2ccc3ncc(-c4cccc(C(F)(F)F)c4)n3n2)CC1 (stereo not given) + Cc1cnc(CNC(=O)c2c(=O)c3ccc(N4CCCN(C)CC4)nc3n3c2sc2ccccc23)cn1 in this assay?
inactive

Please indicate how the test categorized CC1COCCN1c1cc(C2(S(C)(=N)=O)CC2)nc(-c2ccnc3[nH]ccc23)n1 (stereo not given) + CN(C)c1ccc(Nc2c3ccc(NC(=O)CCN4CCCC4)cc3nc3cc(NC(=O)CCN4CCCC4)ccc23)cc1 .
inactive

// return assay outcome for CC1COCCN1c1cc(C2(S(C)(=N)=O)CC2)nc(-c2ccnc3[nH]ccc23)n1 (stereo not given) + Cc1[nH]c2ccc(F)cc2c1-c1nc2c3cccnc3c3ncccc3c2[nH]1
inactive

Entry COc1cc(C2c3cc4c(cc3C(OC3OC5COC(C)OC5C(O)C3O)C3COC(=O)C23)OCO4)cc(OC)c1O (stereo not given) + Cc1[nH]c2ccc(F)cc2c1-c1nc2c3cccnc3c3ncccc3c2[nH]1 : call = ?
inactive

Please indicate how the test categorized O=c1[nH]cc(F)c(=O)[nH]1 + CN(C)c1ccc(Nc2c3ccc(NC(=O)CCN4CCCC4)cc3nc3cc(NC(=O)CCN4CCCC4)ccc23)cc1 .
inactive

I'd appreciate the recorded outcome for O=C(NO)c1cnc(N2CCN(S(=O)(=O)c3ccc4ccccc4c3)CC2)nc1 + Cc1cnc(CNC(=O)c2c(=O)c3ccc(N4CCCN(C)CC4)nc3n3c2sc2ccccc23)cn1 from this test.
active

What was the test verdict on CC(=O)O[C@H]1C(=O)[C@@]2(C)[C@H]([C@H](OC(=O)c3ccccc3)[C@]3(O)C[C@H](OC(=O)[C@H](O)[C@@H](NC(=O)c4ccccc4)c4ccccc4)C(C)=C1C3(C)C)[C@]1(OC(C)=O)CO[C@@H]1C[C@@H]2O + Cc1[nH]c2ccc(F)cc2c1-c1nc2c3cccnc3c3ncccc3c2[nH]1 ?
active

Hi, sorry to bother you, what did the test record for CC(C)n1c(=O)n(C)c2cnc3cc(F)c(-c4ccc(OCCCN5CCCCC5)nc4)cc3c21 + Cc1cnc(CNC(=O)c2c(=O)c3ccc(N4CCCN(C)CC4)nc3n3c2sc2ccccc23)cn1 ?
inactive

// return assay outcome for CC(=O)O[C@H]1C(=O)[C@@]2(C)[C@H]([C@H](OC(=O)c3ccccc3)[C@]3(O)C[C@H](OC(=O)[C@H](O)[C@@H](NC(=O)c4ccccc4)c4ccccc4)C(C)=C1C3(C)C)[C@]1(OC(C)=O)CO[C@@H]1C[C@@H]2O + CN(C)c1ccc(Nc2c3ccc(NC(=O)CCN4CCCC4)cc3nc3cc(NC(=O)CCN4CCCC4)ccc23)cc1
inactive

Hey, what did the test say about COc1ccc([C@@H](O)c2cc(-c3ncnc4cc(N5CCOCC5)ccc34)c(F)cc2Cl)nn1 + Cc1cnc(CNC(=O)c2c(=O)c3ccc(N4CCCN(C)CC4)nc3n3c2sc2ccccc23)cn1 ?
inactive

Assay result, entry C=CCn1c(=O)c2cnc(Nc3ccc(N4CCN(C)CC4)cc3)nc2n1-c1cccc(C(C)(C)O)n1 + CN(C)c1ccc(Nc2c3ccc(NC(=O)CCN4CCCC4)cc3nc3cc(NC(=O)CCN4CCCC4)ccc23)cc1 — outcome?
inactive

====

Test system: 695427-040-R-J1-PDC complex spheroids, viability percent T/C
Assay comment: Anticancer human tumor 695427-040-R-J1-PDC cell line growth inhibition [GQUAD];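 note: spheroids exposed to compounds for seven days before readout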
Protocol conditions: second compound 0.1 µM; first compound 3.16 µM; hits give low values
Endpoint label: viability, T/C (%)
A number alone suffices; assume %.

See these solved cases before continuing.
[[record]]
molecule = "CC1COCCN1c1cc(C2(S(C)(=N)=O)CC2)nc(-c2ccnc3[nH]ccc23)n1 (stereo not drawn) + Cc1cnc(CNC(=O)c2c(=O)c3ccc(N4CCCN(C)CC4)nc3n3c2sc2ccccc23)cn1"
unit_of_measurement = "%"
reported_result = 74.2

[[record]]
molecule = "CC1COCCN1c1cc(-c2ccnn2C)c2ccnc(-c3ccn[nH]3)c2n1 (stereo not drawn) + CN(C)c1ccc(Nc2c3ccc(NC(=O)CCN4CCCC4)cc3nc3cc(NC(=O)CCN4CCCC4)ccc23)cc1"
unit_of_measurement = "%"
reported_result = 45.3


Field: next molecule
viability, T/C measured on C#Cc1c(F)ccc2cc(O)cc(-c3ncc4c(N5CC6CCC(C5)N6)nc(OCC56CCCN5CC(F)C6)nc4c3F)c12 (stereo not drawn) + CN(C)c1ccc(Nc2c3ccc(NC(=O)CCN4CCCC4)cc3nc3cc(NC(=O)CCN4CCCC4)ccc23)cc1 = 97.5

====

Test system: 695427-040-R-J1-PDC complex spheroids, viability percent T/C
Assay comment: Anticancer human tumor 695427-040-R-J1-PDC cell line growth inhibition [GQUAD];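 note: spheroids exposed to compounds for seven days before readout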
Protocol conditions: second compound 0.0316 µM; first compound 3.16 µM; hits give low values
# maps each entry to its viability, T/C
Express it in %; write the number only.

[[record]]
compound = "CC1COCCN1c1cc(C2(S(C)(=N)=O)CC2)nc(-c2ccnc3[nH]ccc23)n1 (centres undefined) + Cc1cnc(CNC(=O)c2c(=O)c3ccc(N4CCCN(C)CC4)nc3n3c2sc2ccccc23)cn1"
test_target = "695427-040-R-J1-PDC complex spheroids, viability percent T/C"
endpoint_label = "viability, T/C"
reported_result = 74.8

[[record]]
compound = "CC(=O)O[C@H]1C(=O)[C@@]2(C)[C@H]([C@H](OC(=O)c3ccccc3)[C@]3(O)C[C@H](OC(=O)[C@H](O)[C@@H](NC(=O)c4ccccc4)c4ccccc4)C(C)=C1C3(C)C)[C@]1(OC(C)=O)CO[C@@H]1C[C@@H]2O + Cc1cnc(CNC(=O)c2c(=O)c3ccc(N4CCCN(C)CC4)nc3n3c2sc2ccccc23)cn1"
test_target = "695427-040-R-J1-PDC complex spheroids, viability percent T/C"
endpoint_label = "viability, T/C"
reported_result = 65

[[record]]
compound = "CC(=O)O[C@H]1C(=O)[C@@]2(C)[C@H]([C@H](OC(=O)c3ccccc3)[C@]3(O)C[C@H](OC(=O)[C@H](O)[C@@H](NC(=O)c4ccccc4)c4ccccc4)C(C)=C1C3(C)C)[C@]1(OC(C)=O)CO[C@@H]1C[C@@H]2O + CN(C)c1ccc(Nc2c3ccc(NC(=O)CCN4CCCC4)cc3nc3cc(NC(=O)CCN4CCCC4)ccc23)cc1"
test_target = "695427-040-R-J1-PDC complex spheroids, viability percent T/C"
endpoint_label = "viability, T/C"
reported_result = 84


Just so you know, measured viability, T/C for Cc1cccc(N(C)C(=O)C2C(O)CCN2c2nc(C)cc(C(F)(F)F)c2C#N)c1 (centres undefined) + Cc1[nH]c2ccc(F)cc2c1-c1nc2c3cccnc3c3ncccc3c2[nH]1 came out at 95.2

# viability, T/C (compound: C=CC(=O)N1CCN(c2nc(=O)n(-c3c(C)ccnc3C(C)C)c3nc(-c4c(O)cccc4F)c(F)cc23)C(C)C1 (centres undefined) + Cc1cnc(CNC(=O)c2c(=O)c3ccc(N4CCCN(C)CC4)nc3n3c2sc2ccccc23)cn1 ) is 75.7

Reported viability, T/C ( C=CCn1c(=O)c2cnc(Nc3ccc(N4CCN(C)CC4)cc3)nc2n1-c1cccc(C(C)(C)O)n1 + Cc1cnc(CNC(=O)c2c(=O)c3ccc(N4CCCN(C)CC4)nc3n3c2sc2ccccc23)cn1 ) = 47
